Reference source: patent US20240336909

MEASUREMENT TARGET: AxCT mask27 EpCAM H90.2 L073 version 1
As shown below, each of these proteins has a reported Percent cleavage value.

- PROTEIN: "Cathepsin G (protein) IIGGRESRPHSRPYMAYLQIQSPAGQSRCGGFLVREDFVLTAAHCWGSNINVTLGAHNIQRRENTQQHITARRAIRHPQYNQRTIQNDIMLLQLSRRVRRNRNVNPVALPRAQEGLRPGTLCTVAGWGRVSMRRGTDTLREVQLRVQRDRQCLRIFGSYDPRRQICVGDRRERKAAFKGDSGGPLLCNNVAHGIVSYGKSSGVPPEVFTRVSSFLPWIRTTMRS"
  Percent cleavage: "0%"

Entry MMP-12 (protein) GPVWRKHYITYRINNYTPDMNREDVDYAIRKAFQVWSNVTPLKFSKINTGMADILVVFARGAHGDFHAFDGKGGILAHAFGPGSGIGGDAHFDEDEFWTTHSGGTNLFLTAVHEIGHSLGLGHSSDPKAVMFPTYKYVDINTFRLSADDIRGIQSLYGDPKENQRLPNPDNSEPALCDPNLSFDAVTTVGNKIFFFKDRFFWLKVSERPKTSVNLISSLWPTLPSGIEAAYEIEARNQVFLFKDDKYWLISNLRPEPNYPKSIHSFGFPNFVKKIDAAVFNPRFYRTYFFVDNQYWRYDERRQMMDPGYPKLITKNFQGIGPKIDAVFYSKNKYYYFFQGSNQFEYDFLLQRITKTLKSNSWFGC has what Percent cleavage?
36%
